- Target Of Assay: Solute carrier family 22 member 12 (Homo sapiens, UniProt Q96S37)
- Sequence (Q96S37 whole entry): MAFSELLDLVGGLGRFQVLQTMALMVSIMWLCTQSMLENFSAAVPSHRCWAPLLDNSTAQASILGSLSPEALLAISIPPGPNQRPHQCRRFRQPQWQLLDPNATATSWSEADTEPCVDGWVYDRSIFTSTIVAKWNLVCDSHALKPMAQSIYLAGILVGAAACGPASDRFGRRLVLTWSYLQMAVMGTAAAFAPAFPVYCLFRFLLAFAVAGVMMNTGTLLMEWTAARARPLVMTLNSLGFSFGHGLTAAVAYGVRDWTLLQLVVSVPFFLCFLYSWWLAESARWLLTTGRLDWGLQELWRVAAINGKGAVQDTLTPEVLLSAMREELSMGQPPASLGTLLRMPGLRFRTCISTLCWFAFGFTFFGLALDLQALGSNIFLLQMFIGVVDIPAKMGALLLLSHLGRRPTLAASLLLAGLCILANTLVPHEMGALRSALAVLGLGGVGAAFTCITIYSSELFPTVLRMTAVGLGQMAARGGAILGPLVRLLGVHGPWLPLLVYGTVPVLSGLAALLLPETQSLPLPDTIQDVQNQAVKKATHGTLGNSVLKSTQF
- Assay Name: Inhibition of URAT1 in human RPTEC assessed as inhibition of [14C]uric acid uptake at 10 uM preincubated for 15 mins followed by [14C]uric acid addition and incubated under shaking condition for 2 hrs by scintillation counter method
- Format: tissue-based
List of inhibition at 10 µM values.
Note: unit % is implicit; provide only the numeric part.

{"Smiles Entry": "N#Cc1cc(C(=O)N2CCc3ccccc32)cc(I)c1O", "Target Of Assay": "Solute carrier family 22 member 12 (Homo sapiens, UniProt Q96S37)", "inhibition at 10 µM (%)": 65.1}
{"Smiles Entry": "N#Cc1cc(C(=O)N2CCc3ccccc32)cc(Cl)c1O", "Target Of Assay": "Solute carrier family 22 member 12 (Homo sapiens, UniProt Q96S37)", "inhibition at 10 µM (%)": 38.2}
{"Smiles Entry": "COc1cc(C(=O)N2CCc3ccccc32)cc(C#N)c1O", "Target Of Assay": "Solute carrier family 22 member 12 (Homo sapiens, UniProt Q96S37)", "inhibition at 10 µM (%)": 21.7}
{"Smiles Entry": "N#Cc1cc(C(=O)N2CCc3ccccc32)cc(C#N)c1O", "Target Of Assay": "Solute carrier family 22 member 12 (Homo sapiens, UniProt Q96S37)", "inhibition at 10 µM (%)": 26.3}

Field: next molecule
stdin: Quick one: inhibition at 10 µM for `CSc1cc(C(=O)N2CCc3ccccc32)cc(C#N)c1O` ?
stdout: 24.2
